# credit: patent US9297017B2

# target.or.system: COI1-JAZ6 complex (Arabidopsis thaliana, UniProt O04197+Q9C9E3)
# Construct: Full-length Arabidopsis thaliana COI1 and ASK1 were co-expressed; Full-length JAZ substrate proteins were expressed as 6×His-fusion proteins in Escherichia coli; GST (cleaved yes); 6xHis; Escherichia coli (JAZ6)
# Sequence (O04197 1-592): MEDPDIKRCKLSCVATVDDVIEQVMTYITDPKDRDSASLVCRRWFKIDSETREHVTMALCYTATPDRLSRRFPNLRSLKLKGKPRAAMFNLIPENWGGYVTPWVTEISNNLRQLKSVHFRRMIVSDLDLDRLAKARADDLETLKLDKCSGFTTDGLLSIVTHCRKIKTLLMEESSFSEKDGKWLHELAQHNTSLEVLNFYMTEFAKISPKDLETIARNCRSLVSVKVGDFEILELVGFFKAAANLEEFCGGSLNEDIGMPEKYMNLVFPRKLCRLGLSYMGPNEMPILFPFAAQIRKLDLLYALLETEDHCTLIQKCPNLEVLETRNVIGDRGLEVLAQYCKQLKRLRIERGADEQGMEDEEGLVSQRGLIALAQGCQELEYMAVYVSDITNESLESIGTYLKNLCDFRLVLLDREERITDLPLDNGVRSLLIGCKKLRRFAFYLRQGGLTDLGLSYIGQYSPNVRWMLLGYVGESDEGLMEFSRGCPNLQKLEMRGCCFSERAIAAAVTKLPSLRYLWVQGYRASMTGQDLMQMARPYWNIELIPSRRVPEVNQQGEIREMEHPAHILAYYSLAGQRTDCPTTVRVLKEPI
# Sequence (Q39255 1-160 partner): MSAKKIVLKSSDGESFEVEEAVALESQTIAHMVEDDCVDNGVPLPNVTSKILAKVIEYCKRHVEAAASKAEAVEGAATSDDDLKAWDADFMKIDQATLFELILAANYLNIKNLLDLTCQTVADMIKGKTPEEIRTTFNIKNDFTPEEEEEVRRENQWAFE
# Sequence (Q9C9E3 1-269): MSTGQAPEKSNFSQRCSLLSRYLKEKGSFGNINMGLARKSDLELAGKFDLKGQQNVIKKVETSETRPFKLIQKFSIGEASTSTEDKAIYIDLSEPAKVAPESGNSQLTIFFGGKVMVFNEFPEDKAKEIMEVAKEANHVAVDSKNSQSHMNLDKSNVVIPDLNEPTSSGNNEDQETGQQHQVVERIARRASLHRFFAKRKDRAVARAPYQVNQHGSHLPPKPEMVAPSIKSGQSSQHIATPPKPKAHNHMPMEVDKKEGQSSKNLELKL
# measurement.notes: Competition binding with 100 nM 3H-coronatine
# experimental.parameters: 100 nM 3H-COR, COI1-JAZ6 complex; read-out: Inhibition constant (Ki), competition with 3H-coronatine
// reported Ki for each item listed
API: value field is a number in µM; no unit string.

CC/C=C\C[C@@H]1C(=O)CC[C@@H]1CC(=O)N[C@H](C(=O)O)[C@@H](C)CC [(3R,7S)-JA-Ile, (3R,7S)-jasmonyl-L-isoleucine] = 1.8

Then this compound:
Can you share its Ki? I mean this compound: CCC=CC[C@H]1C(=O)CC[C@@H]1CC(=O)N[C@H](C(=O)O)[C@@H](C)CC [(3R,7R)-JA-Ile]
18
